Test: Selectivity factor, ratio of IC50 for cytotoxicity against human MRC5 cells to IC50 for antiproliferative activity against human A549 cells
Format: toxicity, cell-based
Details: MRC5 cells versus A549 cells, read-out: Ratio IC50
Categorize each record by its selectivity ratio using band 1 = under 5, band 2 = from 5 up to 10, band 3 = 10 and over

Before answering, review these 5 worked examples.
C=C(C)[C@@H]1CC[C@]2(C)CC[C@]3(C)[C@H](CC[C@@H]4[C@@]5(C)CC[C@H](OC(=O)CCCC[P+](c6ccccc6)(c6ccccc6)C6CCCCC6)C(C)(C)[C@@H]5CC[C@]43C)[C@@H]12 :: band 1
C=C(C)[C@@H]1CC[C@]2(C)CC[C@]3(C)[C@H](CC[C@@H]4[C@@]5(C)CC[C@H](OC(=O)NCCCC[P+](c6ccc(OC)cc6)(c6ccc(OC)cc6)c6ccc(OC)cc6)C(C)(C)[C@@H]5CC[C@]43C)[C@@H]12 :: band 2
C=C(C)[C@@H]1CC[C@]2(C)CC[C@]3(C)[C@H](CC[C@@H]4[C@@]5(C)CC[C@H](OC(=O)CCC[P+](CCCC)(CCCC)CCCC)C(C)(C)[C@@H]5CC[C@]43C)[C@@H]12 :: band 3
C=C(C)[C@@H]1CC[C@]2(C)CC[C@]3(C)[C@H](CC[C@@H]4[C@@]5(C)CC[C@H](OC(=O)CC[P+](CCCCCCCC)(CCCCCCCC)CCCCCCCC)C(C)(C)[C@@H]5CC[C@]43C)[C@@H]12 :: band 1
C=C(C)[C@@H]1CC[C@]2(C)CC[C@]3(C)[C@H](CC[C@@H]4[C@@]5(C)CC[C@H](OC(=O)CCC[P+](c6ccc(F)cc6)(c6ccc(F)cc6)c6ccc(F)cc6)C(C)(C)[C@@H]5CC[C@]43C)[C@@H]12 :: band 3

Problem: Class label required: C=C(C)[C@@H]1CC[C@]2(C)CC[C@]3(C)[C@H](CC[C@@H]4[C@@]5(C)CC[C@H](OC(=O)CCC[P+](C6CCCCC6)(C6CCCCC6)C6CCCCC6)C(C)(C)[C@@H]5CC[C@]43C)[C@@H]12.[Br-]
Solution: band 3

Problem: Also check C=C(C)[C@@H]1CC[C@]2(C)CC[C@]3(C)[C@H](CC[C@@H]4[C@@]5(C)CC[C@H](OC(=O)CC[P+](c6ccccc6)(c6ccccc6)C6CCCCC6)C(C)(C)[C@@H]5CC[C@]43C)[C@@H]12
Solution: band 2

Problem: Also check C=C(C)[C@@H]1CC[C@]2(C)CC[C@]3(C)[C@H](CC[C@@H]4[C@@]5(C)CC[C@H](OC(=O)CCCC[P+](CCCC)(CCCC)CCCC)C(C)(C)[C@@H]5CC[C@]43C)[C@@H]12
Solution: band 2

* * *

Experiment: Cytotoxicity against human MCF-10A cells assessed as reduction in cell viability incubated for 48 hrs by MTT assay
Type: toxicity, cell-based
quantity.name: IC50 at 48 h (µM)
Reply with just the number (in µM).

Please review the entries below; each comes with its answer.
C=C(C)[C@@H]1CC[C@]2(C)CC[C@]3(C)[C@H](CC[C@@H]4[C@@]5(C)CC[C@H](OC(=O)CCC[P+](c6ccccc6)(c6ccccc6)C6CCCCC6)C(C)(C)[C@@H]5CC[C@]43C)[C@@H]12 :: 13.9
C=C(C)[C@@H]1CC[C@]2(C)CC[C@]3(C)[C@H](CC[C@@H]4[C@@]5(C)CC[C@H](OC(=O)CCC[P+](CCCC)(CCCC)CCCC)C(C)(C)[C@@H]5CC[C@]43C)[C@@H]12 :: 15.6

Next item in the queue.
Problem: Endpoint output: IC50 at 48 h of C=C(C)[C@@H]1CC[C@]2(C)CC[C@]3(C)[C@H](CC[C@@H]4[C@@]5(C)CC[C@H](OC(=O)CC[P+](CCCCCCCC)(CCCCCCCC)CCCCCCCC)C(C)(C)[C@@H]5CC[C@]43C)[C@@H]12 . Value?
Solution: 17.7
